# reported EC50; entries follow
- experimental system: T1, human LAIR1 extracellular domain (ECD) protein with 6 HIS tag at the C-terminus (human, UniProt Q6GTX8 22-165)
- T1 construct: Produced recombinantly in HEK293 cells; the whole entry is named here; also called LAIR1 ECD; LAIR1-ECD
- T1 chain: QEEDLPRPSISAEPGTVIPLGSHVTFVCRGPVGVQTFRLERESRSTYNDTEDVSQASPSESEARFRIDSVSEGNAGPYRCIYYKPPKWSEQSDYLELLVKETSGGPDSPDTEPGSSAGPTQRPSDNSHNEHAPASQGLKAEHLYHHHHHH
- experiment notes: ELISA, LAIR1 ECD coated, mAb titrated, anti-rabbit HRP
Numeric only. Scale: nM

// solved cases for EC50 follow
binder	unit of measurement	EC50
LA-258-1 (antibody, V domains shown, Rabbit monoclonal IgG) VH: QSVKESGGDLVKPEGSLTLTCKASGFSFSNSYYMCWVRQAPGKGLEWIACIYTGSTSGTYYASWVNGRFTISKTPSTTVTLQMTSLTVADTATYFCSRKLTNFNGAYLDLWGPGTLVTISS VL: ELVLTQTPASVEAAVGGTVTINCQASQSISNLLAWYQQKPGQRPKLLIYRASTLASGVSSRFKGSGSGTEYTLTISGVQCDDAATYYCQQGYTSNNVDNAFGGGTEVEIK	nM	4.21
LA-29 (antibody, V domains shown, Rabbit monoclonal IgG; also called mAb LA-29) VH: SSSVEESGGGLVQPEGSLTLTCTASGFSFSSRYYMCWVRQAPGKGLEWIACIYNGDGSRYYASWAKGRFTISKTSSTTVTLQMTSLTAADTATYFCVRDRHTAFVDYGDDNLWGPGTLVTVSS VL: ELDLTQTPASVSEPVGGTVTIKCQASQSIYSNLAWYQQKPGQPPKLLIYRASTLASGVPSRFKGSGAGTEFTLTISDLECADAATYYCQCTYDGISYVPSSFGGGTEVVVK	nM	0.02
LA-64 (antibody, V domains shown, Rabbit monoclonal IgG; also called mAb LA-64) VH: EQSLESGGGLITPGGTLTLTCTASGFTVTRYYMNWVRQAPGKGLEWIGYIYASSKTYYANWAKGRFTISKTSTTVDLKMTSLTAEDTGTYFCARGGVGNSGLNLDLWGPGTLVTISS VL: ELVLTQTPASVSEPVGGTVTIKCQASQSIGSWLAWYQQKPGQPPKLLIYQASRLASGVSSRFGGSGSGTEFTLTISDLECADAATYYCQQAEYSGDVENTFGGGTEVVVK	nM	0.09
LA-95 (antibody, V domains shown, Rabbit monoclonal IgG; also called mAb LA-95) VH: EQSLKESGGRLVTPGGSLTLTCTASGFDINNYNIQWVRQAPGKGLEWIGFISPAGNEYSATWAKGRFTIYKTSSTTVELKMTSLTASDTATYFCARHWDSWGPGTLVTISS VL: ELVMTQTESPVSAAVGGTVTISCQSSQSVYSNRLSWFQQKPGQPPKELVYWTSTLQSGVPSRFSGSGSGTQFTLTISDLECDDAATYYCLGGYSGNIYVFGGGTEVEIK	nM	0.04
LA-219 (antibody, V domains shown, Rabbit monoclonal IgG; Called a potential antagonist antibody) VH: EQSVESGGGLITPGGTLTLTCTASGFTVTRYYMNWVRQAPGKGLEWIGYIYASSKTYYANWAKGRFTISKTSTTVDLKMTSLTAEDTGTYFCARGGVGNSGLNLDLWGPGTLVTISS VL: ELDMTQTPASVSEPVGGTVTIKCQASQSIGSWLAWYQQKPGQPPKLLIYQASRLASGVSSRFGGSGSGTEFTLTISDLECADAATYYCQQAEYSGDVENTFGGGTEVVVK	nM	0.06
LA-222 (antibody, V domains shown, Rabbit monoclonal IgG) VH: EQSVEESGGDLVKPGASLTLTCTASGFSFTYWICWVRQAPGKGLEWIACIYAGSSGDTYYASWAKGRFTISKTSSTTVTLQMTSLTAADTATYFCARSPDYVAWGYDLWGPGTRVTVSS VL: ELVLTQTPASVSAAVGGTVTINCQASQSIGTNLVWYQQKPGQPPKLLFYYASTLASGVPSRFRGSRSGTEYTLTISDLECADAATYYCQCIYYGGNYGHTFGGGTEVVVK	nM	0.05

Recall and state the measured EC50 for LA-171 (antibody, V domains shown, Rabbit monoclonal IgG) VH: EQSVEESGGRLVTPGGSLTLTCTVSGFSLSSYNMGWVRQAPGKGLEYIGWISLGGNTYYASWVNGRFTISKTSTTVELKISSPTTEDTATYFCARGAGSLYYGDYYFTLWGPGTLVTISS VL: ELVLTQTPSSVSAAVGGTVTIKCQASQSIYSNLAWYQQKPGQPPKLLIYKASNLASGVPSRFKGSGSGTEYTLTISDLECADAATYYCQNYYGINDYGAAFGGGTEVVVK .
0.09

Recall and state the measured EC50 for LA-56 (antibody, V domains shown, Rabbit monoclonal IgG; also called mAb LA-56) VH: SSSVEESGGRLVTPGTPLTLTCTVSGFSLSAYWVGWVRQAPGKGLEYIGFVDVDIYYASWARGRFTISKTSSTTVDLILTSPTMEDTATYFCVRMSYNAMDLWGPGTLVTISS VL: ELDLTQTASSVSAAVGDTVTINCQSSESVYKDNFLSWYQQKPGQPPKLLIYRASTLASGVPSRFKGSGSGSQFTLTISDVVCDDAATYYCSGYRNSHDGLPFGGGTEVEIK .
0.05

Recall and state the measured EC50 for LA-6 (antibody, V domains shown, Rabbit monoclonal IgG; also called mAb LA-6) VH: EQSVEESGGDLVKPEGSLTLTCTASGFSFSSGYYMCWVRQAPGKGLEWIGCIHSSSGNIYYASWAKGRFTISKTSSTTVDLQLTSLTAADTATYFCARDSEVYGWNPNDLWGPGTLVTVSS VL: ELDMTQTPASVSEPVGGTVTIKCQASQSISSYLAWYQQKPGQRPKLLIYGASNLASGVSSRFKGSRSGTQFTLTITDLECDDAATYYCQCSYYGNSYVGGAFGGGTEVVVK .
0.07

Recall and state the measured EC50 for LA-155 (antibody, V domains shown, Rabbit monoclonal IgG) VH: EQSLEESGGDLVKPEGSLTLTCTASGFSFNSNYWICWVRQTPGKGLEWIGCIYSGSSGDTYYASWAKGRFTISKTSSTTVTLQMTSLTAADTATYFCARGADYVYWSYGLWGPGTLVTISS VL: ELVLTQTPASVSAAVGGTLTIKCQASETIGTNLAWYQQKPGQPPKLLIYLASYLASGVSSRFKGSRSGTEFTLTISDLDCDDAATYYCQSTHFGNGHTFGGGTEVVVK .
0.04
